# system_tested: Proteasome Macropain subunit (Homo sapiens)
# experiment_summary: Inhibition of 26S proteasome beta 2 in human HEK293 cell lysate assessed as residual activity at 0.001 uM after 1 hr
# Format: cell-free
measured_property: Activity (%)

compound	measured_property	quantitative_result
CC(C)C[C@H](NC(=O)[C@H](Cc1c(F)c(F)c(F)c(F)c1F)NC(=O)[C@H](Cc1ccccc1)NC(=O)[C@H](Cc1ccccc1)N=[N+]=[N-])C(=O)[C@@]1(C)CO1	Activity	105
CC(C)C[C@H](NC(=O)[C@H](Cc1ccccc1)NC(=O)[C@H](Cc1cc(C(F)(F)F)cc(C(F)(F)F)c1)NC(=O)[C@H](Cc1ccccc1)N=[N+]=[N-])C(=O)[C@@]1(C)CO1	Activity	118
CC(C)C[C@H](NC(=O)[C@H](Cc1cc(C(F)(F)F)cc(C(F)(F)F)c1)NC(=O)c1cnccn1)B1OC2C[C@@H]3C[C@@H](C3(C)C)[C@]2(C)O1 (stereo partly specified)	Activity	100
CC(C)C[C@H](NC(=O)[C@H](Cc1cc(C(F)(F)F)cc(C(F)(F)F)c1)NC(=O)[C@H](Cc1ccccc1)NC(=O)[C@H](Cc1ccccc1)N=[N+]=[N-])C(=O)[C@@]1(C)CO1	Activity	106
CC(C)C[C@H](NC(=O)[C@H](Cc1ccccc1)NC(=O)[C@H](Cc1ccccc1)NC(=O)[C@H](Cc1ccccc1)N=[N+]=[N-])C(=O)[C@@]1(C)CO1	Activity	106
CC(C)C[C@H](NC(=O)[C@H](Cc1c(F)c(F)c(F)c(F)c1F)NC(=O)c1cnccn1)B1OC2C[C@@H]3C[C@@H](C3(C)C)[C@]2(C)O1 (stereo partly specified)	Activity	110
